Experiment: gradient 5% acetonitrile 3 min, to 50% in 2 min, to 85% in 15 min, held 3 min, 100 µL/min
Conditions: column: Zorbax Extend-C18 2.1 x 50 mm; eluents: water / acetonitrile, 0.1% formic acid
assay_readout: RP-LC retention time (s)

[a] Cc1ccc(S(=O)(=O)c2nc(S(C)(=O)=O)sc2NCc2ccccn2)cc1
[b] Fc1ccc(Nc2nc(-c3cccc(Cl)c3)cs2)nc1
Task: Between a and b , which one has the lower reported RP-LC retention time value? When you have decided, please share the label of that item.
Output: a

====

Assay: gradient 5% acetonitrile 3 min, to 50% in 2 min, to 85% in 15 min, held 3 min, 100 µL/min
Settings: column: Zorbax Extend-C18 2.1 x 50 mm; eluents: water / acetonitrile, 0.1% formic acid
assay_readout: RP-LC retention time (s)

compound: O=C(Nc1ccc(F)cc1)C1CCCN(S(=O)(=O)Cc2ccc(F)cc2)C1 (stereo not given)
unit: s
test_result: 933

compound: CCc1cc(=O)n(CC(=O)Nc2cccc(C)c2C)c(N2CCOCC2)n1
unit: s
test_result: 764

compound: CCCN(CC1CCOC1)S(=O)(=O)c1cccc(OC)c1 (stereo not given)
unit: s
test_result: 881

compound: CS(=O)(=O)N1CC[C@H]2CN(C(=O)c3ccc4ncccc4c3)C[C@@]2(CF)C1
unit: s
test_result: 607

compound: O=C(NCc1ccco1)C1CCN(S(=O)(=O)c2cc(-c3noc(C4CCC4)n3)cs2)CC1
unit: s
test_result: 917

compound: CCNC(=O)c1c2c(nc3ccc(F)cc13)CCCC2
unit: s
test_result: 588

compound: Cn1cccc1CN(Cc1cccs1)C(=O)CN1C(=O)CCC1=O
unit: s
test_result: 731

compound: Cc1nc(C(=O)Nc2ccccc2)c(C)n1C1CCN(S(C)(=O)=O)CC1
unit: s
test_result: 648

compound: O=C(Nc1ccc(F)cc1)C1CCN(C(=O)C2Sc3ccccc3NC2=O)CC1 (stereo not given)
unit: s
test_result: 746

compound: O=C(CSc1ncnc2ccccc12)NCc1ccccc1
unit: s
test_result: 708
